Structures can show the parent of a compound that is named as a salt.
measured_endpoint: melting point

See these solved cases before continuing.
[[record]]
molecule = "COc1cc(N2CCN([C@H]3CC[C@@H](c4cn(C)c5ncccc54)CC3)CC2)c2ncccc2c1"
result = "105 to 110 °C"

[[record]]
molecule = "Cn1cc([C@H]2CC[C@H](N3CCN(c4cc(C(=O)O)cc5cccnc45)CC3)CC2)c2cc(C#N)ccc21"
result = "275 °C"

[[record]]
molecule = "COC(=O)c1cc(N2CCN([C@H]3CC[C@@H](c4cn(C)c5ccc(C#N)cc54)CC3)CC2)c2ncccc2c1 (as salt: oxalate)"
result = "153 to 155 °C"

[[record]]
molecule = "Cn1cc([C@H]2CC[C@@H](N3CCN(c4cc(C(=O)O)cc5cccnc45)CC3)CC2)c2cc(C#N)ccc21 (as salt: oxalate)"
result = "230 °C"

[[record]]
molecule = "COc1ccc2cc(N3CCN(C4CCC(c5c[nH]c6ccc(F)cc56)CC4)CC3)ccc2c1 (stereo not shown) (as salt: oxalate)"
result = "200 to 203 °C"


State recorded melting point for all listed molecules.
1. COc1cc2cccnc2c(N2CCN([C@H]3CC[C@@H](c4cn(C)c5ccc(C#N)cc54)CC3)CC2)n1 (as salt: salt) [Example 66b]
2. c1cc(N2CCN([C@H]3CC[C@@H](c4c[nH]c5ncccc54)CC3)CC2)c2cc[nH]c2c1 (as salt: HCl) [Example 10a]

1: 230 to 233 °C; 2: > 250 °C (dec.)

Hi there! I need melting point for each item below, if you can.
1. Fc1cc2c(c(N3CCN([C@H]4CC[C@@H](c5c[nH]c6ccc(F)cc65)CC4)CC3)c1)OCC2 (as salt: HCl) (hydrate or solvate) [Example 32a]
2. COc1cc(N2CCN([C@H]3CC[C@H](c4cn(C)c5ccc(C#N)cc54)CC3)CC2)c2ncccc2c1C [Example 52b]
3. COc1ccccc1N1CCN(C2CC=C(c3c[nH]c4ccc(F)cc34)CC2)CC1 (stereo not shown) (as salt: HCl)
4. COc1cc(N2CCN(C3CCC(c4c[nH]c5cc(C#N)ccc45)CC3)CC2)c2ncccc2c1 (stereo not shown)
5. CCn1cc([C@H]2CC[C@@H](N3CCN(c4cccc5[nH]ccc45)CC3)CC2)c2cc(C#N)ccc21 (as salt: HCl) (hydrate or solvate) [Example 13a]
6. Fc1cc2c(c(N3CCN([C@H]4CC[C@H](c5c[nH]c6ccc(F)cc65)CC4)CC3)c1)OCCC2 (as salt: HCl) (hydrate or solvate) [Example 31b]

196 to 198 °C
212 to 213 °C
250 °C
242 to 244 °C
245 °C
286 to 288 °C

Attribution: patent US6465482B2
